# reported koff; entries follow
target: Recombinant human his-tagged IGF 1R extracellular domain protein (human) (UniProt P08069); test: SPR, captured IgG, IGF-1R ECD-his analyte, dissociation pH 6
experimental-endpoint: koff (s⁻¹)

{"binder": "VRDN-02557 (antibody, V domains shown) VH: EVQLVQSGGGLVKPGGSLRLSCAASGFTFSSFAMHWVRQAPGKGLEWISVIDTRGATYYADSVKGRFTISRDNAKNSLYLQMNSLRAEDTAVYYCARLGNFYYGHDVWGQGTTVTVSS VL: EIVLTQSPGTLSVSPGERATLSCRASQSIGSSLHWYQQKPGQAPRLLIKHASQSLSGIPDRFSGSGSGTDFTLTISRLEPEDFAVYYCHQSSRLPHTFGQGTKVEIK", "value": 0.00239}
{"binder": "VRDN-02566 (antibody, V domains shown) VH: EVQLVQSGGGLVKPGGSLRLSCAASGFTFSSFAMHWVRQAPGKGLEWISVIDTRGATYYADSVKGRFTISRDNAKNSLYLQMNSLRAEDTAVYYCHRLGNFYYGHDVWGQGTTVTVSS VL: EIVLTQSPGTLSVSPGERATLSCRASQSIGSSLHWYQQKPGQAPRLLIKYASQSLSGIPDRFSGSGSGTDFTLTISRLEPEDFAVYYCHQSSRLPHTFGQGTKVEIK", "value": 0.00885}
{"binder": "VRDN-02506 (antibody, V domains shown) VH: EVQLVQSGGGLVKPGGSLRLSCAASGFTFSHFAMHWVRQAPGKGLEWISVIDTRGATYYADSVKGRFTISRDNAKNSLYLQMNSLRAEDTAVYYCARLGNFYYGMDVWGQGTTVTVSS VL: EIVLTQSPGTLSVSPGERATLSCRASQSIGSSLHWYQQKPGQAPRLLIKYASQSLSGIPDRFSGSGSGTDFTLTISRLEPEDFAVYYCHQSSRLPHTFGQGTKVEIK", "value": "1e-06"}

Hey, just so you know, these numbers are from patent US20240343814A1.
